biological target: T1, recombinant LILRB1 (human, UniProt Q8NHL6 24-461); test: ELISA, coated recombinant LILRB1, antibody titration;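 note: serially diluted anti-LILRB1 antibodies incubated 60 min at 37 °C on plates coated with 50 ng/well recombinant protein, TMB colorimetric development read as absorbance at 450 nm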
T1 construct: LILRB1-Fc proteins were also made; also called LILRB1 recombinant proteins
T1 sequence (Q8NHL6 24-461 limits assumed): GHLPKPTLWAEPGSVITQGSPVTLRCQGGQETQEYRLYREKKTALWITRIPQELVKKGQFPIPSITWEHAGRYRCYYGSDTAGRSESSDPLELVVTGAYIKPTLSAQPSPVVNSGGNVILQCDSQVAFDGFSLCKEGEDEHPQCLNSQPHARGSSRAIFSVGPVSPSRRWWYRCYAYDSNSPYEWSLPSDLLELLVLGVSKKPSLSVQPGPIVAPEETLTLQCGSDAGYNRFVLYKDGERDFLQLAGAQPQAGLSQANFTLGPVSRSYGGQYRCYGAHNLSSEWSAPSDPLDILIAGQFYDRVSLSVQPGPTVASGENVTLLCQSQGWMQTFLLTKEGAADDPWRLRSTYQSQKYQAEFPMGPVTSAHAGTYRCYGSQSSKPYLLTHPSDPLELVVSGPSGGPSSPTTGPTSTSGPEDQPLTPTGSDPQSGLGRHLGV
Listed binders paired with reported EC50
Number in µg/mL, nothing else.

Take a look at these entries with their results.
Binder	Reported value
B1-#93 (antibody, V domains shown, recombinant rabbit IgG) VH: EQSVEESGGDLVKPGTSLTLTCTASGFSFSGNTICWVRQAPGKRPEWIACIYPSSTSITTYATWAKGRFTVSKTSSTTVTLQMTSLTAADTATYFCARRYAAFLTYGSGAFDPWGPGTLVTISS VL: ELDLTQTPASVSAAVGGTVTINCQASESIGSALAWYQQKPGQPPKLLIYSASALASGVPSRFKGSGSGTEYTLTISDLECADAATYYCQSYYGSGTTALDTFGGGTEVEIK	0.482
B1-#18 (antibody, V domains shown, recombinant rabbit IgG) VH: EQSVKESGGGLVKPGGTLTLTCIVSGFSLSRYAVTWVRQAPGKGPEWIGYIDTSSGNKDYANWVNGRFTISKTSSTTVTLQMTSLTAADTATYFCARGFSMFKLWGPGTLVTISS VL: ELVMTQTPSSVSAAVGGTVTISCQASQSVYNNNNLAWYQQKPGQPPKRLIYSASTLDSGVPSRFSGSGSGTQFTLTISDLECDDAATYYCAGGYTYNINIFGGGTEVEIK	0.0182

Qu. Bench note: what EC50 did B1-#79 (antibody, V domains shown, recombinant rabbit IgG) VH: QSLEESGGGLVQPEGSLTLTCTVSGFSFSSSWYMCWVRQAPGKGLEWIACIYTLRSGAAHYANWAKGRFTISKASSTTVTLQMNSLTAADTATYFCARATYAYAGAGDLWGPGTLVTVSS VL: ELVLTQTPSSVSAAVGGTVTINCQASEDIDRYLAWYQQKPGQRPKLLIVDASTLPSGVPSRFKGSGSGTEFTLTISDLECADGATYYCQSYDNSDNNGFGGGTEVVVK show?
Ans. 0.0154

Qu. Given B1-#198 (antibody, V domains shown, recombinant rabbit IgG) VH: QSLEESGGGLVKPEGSLTLTCTASGFDLSNNYYICWVRQAPGKGLELIACVDSDLTDSADYASWAKGRFTISKTSSTTVTLQMTSLTAADTATYFCAGSGSGYYYYYGMDLWGPGTLVTISS VL: ELDMTQTPASVSEPVGGTVTIKCQASQSIGSYLAWYQQKPGQPPKLLAFYASTLKSGVPPRFKGSGSGTEFTLTISDLECADAATYYCQSNRLSSSDVNAFGGGTEVEIK , state its recorded EC50.
Ans. 0.00942
